Biological target: T1, CSTF2 (CstF-64) RRM wild type (Homo sapiens, UniProt P33240 1-107)
T1 sequence: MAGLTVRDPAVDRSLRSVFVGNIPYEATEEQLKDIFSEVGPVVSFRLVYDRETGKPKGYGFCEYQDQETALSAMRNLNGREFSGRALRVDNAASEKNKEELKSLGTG
Assay: ITC
MEASURED QUANTITY: pKd
# pKd = -log10(concentration in molar units)

Exercise: What value of pKd has been reported for the following binder? AUUUUAUGUUUCAGGU (ssRNA) [SVL RNA, unlabeled]
Key: 5.82
